tested on: JJN-3 (NIK translocated) multiple myeloma cells; test: Antiproliferative activity on JJN-3 multiple myeloma cells (CellTiter-Glo, 96 hr), Biological Assay C; assay type: cell-based, human; conditions: Homo sapiens, JJN-3, 96 h, JJN-3 (NIK translocated) cells, averaged values, read-out: JJN-3 Proliferation inhibition (IC50 (nM))
Known IC50 of a selection of compounds
attributeMeasured: IC50

[[record]]
compound = "Cc1cc(F)c(C(=O)NC2CCN(C)C2)cc1Nc1nccc(-c2cc(C#N)c3c(c2)[C@@](C)(CO)CN3)n1 (single isomer, unassigned)"
result = "955 nM"

[[record]]
compound = "CCC(=O)NCC#Cc1cc(C)c(Nc2nccc(-c3cc(C#N)c4c(c3)[C@@](C)(CO)CN4)n2)cc1C#N"
result = "91 nM"

[[record]]
compound = "Cc1cc(C2CCOCC2)c(C#N)cc1Nc1nccc(-c2cc(C#N)c3c(c2)[C@@](C)(CO)CN3)n1"
result = "105 nM"


----------
attributeMeasured: melting point

[[record]]
compound = "Cc1ccc(C(C)(C)O)cc1Nc1nccc(-c2cc(C#N)c3c(c2)[C@@](C)(CO)CN3)n1"
result = "122 °C"

[[record]]
compound = "Cc1c(Nc2nccc(-c3cc(C#N)c4c(c3)[C@@](C)(CO)CN4)n2)cccc1C(=O)N1CCN(C2CC2)CC1"
result = "238 °C"

[[record]]
compound = "Cc1ccc(C#N)cc1Nc1nccc(-c2cc(C#N)c3c(c2)[C@@](C)(CO)CN3)n1 [Compound 133]"
result = "262 °C"

[[record]]
compound = "Cc1c(CN2CC(F)(F)C2)cc(C#N)cc1Nc1nccc(-c2cc(C#N)c3c(c2)[C@@](C)(CO)CN3)n1"
result = "240 °C"

[[record]]
compound = "Cc1ccc(-c2ccnn2C)cc1Nc1nccc(-c2cc(C#N)c3c(c2)[C@@](C)(CO)CN3)n1"
result = "128 °C"

[[record]]
compound = "CC(=O)NC[C@@]1(C)CNc2c(C#N)cc(-c3ccnc(Nc4cc(C#N)ccc4C)n3)cc21"
result = "160 °C"

[[record]]
compound = "CNC(=O)c1cc(Nc2nccc(-c3cc(C#N)c4c(c3)[C@@](C)(CO)CN4)n2)c(F)cc1OC1CC1"
result = "235 °C"

[[record]]
compound = "CN1CCC(Oc2ccc(C#N)cc2Nc2nccc(-c3cc(C#N)c4c(c3)[C@@](C)(CO)CN4)n2)CC1"
result = "129 °C"

[[record]]
compound = "CN(C)Cc1cc(Nc2nccc(-c3cc(C#N)c4c(c3)[C@@](C)(CO)CN4)n2)ccc1C1CCOCC1"
result = "249 °C"

[[record]]
compound = "COc1cc(C(=O)NC2CCOCC2)c(Cl)cc1Nc1nccc(-c2cc(C#N)c3c(c2)C(C)(C)CN3)n1"
result = "> 260 °C"

[[record]]
compound = "C[C@]1(CO)CNc2c(C#N)cc(-c3ccnc(Nc4cc(C#N)ccc4CCN4CC(F)C4)n3)cc21"
result = "207 °C"

[[record]]
compound = "Cc1cc(F)c(C(=O)NC2CCN(C)C2)cc1Nc1nccc(-c2cc(C#N)c3c(c2)[C@@](C)(CO)CN3)n1 (single isomer, unassigned) [Compound 166]"
result = "116 °C"

[[record]]
compound = "Cc1ccc(C#N)cc1Nc1nccc(-c2cc(C#N)c3c(c2)[C@@](C)(CO)CN3)n1 [Compound 1]"
result = "222 °C"

[[record]]
compound = "COc1ccc(Cl)cc1Nc1ncc(F)c(-c2cc(C#N)c3c(c2)[C@@](C)(CO)CN3)n1"
result = "> 250 °C"


----------
attributeMeasured: melting point (°C)

[[record]]
compound = "Cc1cc(C2CCN(C)CC2)c(C#N)cc1Nc1nccc(-c2cc(C#N)c3c(c2)[C@@](C)(CO)CN3)n1 [Compound 175]"
qualifiersign = "="
quantitativereadout = 226

[[record]]
compound = "Cc1ccc(OCCNC2CC2)c(Nc2nccc(-c3cc(C#N)c4c(c3)[C@@](C)(CO)CN4)n2)c1 [Compound 235]"
qualifiersign = "="
quantitativereadout = 133

[[record]]
compound = "Cc1cc(C2CCOCC2)c(C#N)cc1Nc1nccc(-c2cc(C#N)c3c(c2)[C@@](C)(CO)CN3)n1 [Compound 75]"
qualifiersign = "="
quantitativereadout = 228

[[record]]
compound = "Cc1ccc(C#N)cc1Nc1nccc(-c2cc(C#N)c3c(c2)[C@](C)(CO)CN3)n1 [Compound 65]"
qualifiersign = "="
quantitativereadout = 218

[[record]]
compound = "CN(C)C(=O)c1ccc(Cl)cc1Nc1nccc(-c2cc(C#N)c3c(c2)C(C)(CO)CN3)n1 (centres unmarked) [Compound 56]"
qualifiersign = "="
quantitativereadout = 170

[[record]]
compound = "Cc1c(Nc2nccc(-c3cc(C#N)c4c(c3)C(C)(CO)CN4)n2)cc(Cl)cc1C(=O)N(C)C (centres unmarked) [Compound 53]"
qualifiersign = "="
quantitativereadout = 245

[[record]]
compound = "CC1(C)CNc2c(C#N)cc(-c3ccnc(Nc4cc(Cl)ccc4OC4CCOCC4)n3)cc21 [Compound 103]"
qualifiersign = "="
quantitativereadout = 126

[[record]]
compound = "CNC(=O)c1cc(Nc2nccc(-c3cc(C#N)c4c(c3)[C@@](C)(CO)CN4)n2)c(OC2CC2)cc1F [Compound 156]"
qualifiersign = "="
quantitativereadout = 206

[[record]]
compound = "CC1(CO)CNc2c(C#N)cc(-c3ccnc(Nc4cc(Cl)ccc4Cl)n3)cc21 (centres unmarked) [Compound 29]"
qualifiersign = "="
quantitativereadout = 210

[[record]]
compound = "CC1(C)CNc2c(C#N)cc(-c3ccnc(Nc4ccccc4C(=O)N4CCC(O)C4)n3)cc21 (centres unmarked) [Compound 111]"
qualifiersign = "="
quantitativereadout = 219

[[record]]
compound = "CN(C)C(=O)Cc1ccc(Cl)cc1Nc1nccc(-c2cc(C#N)c3c(c2)C(C)(CO)CN3)n1 (centres unmarked) [Compound 54]"
qualifiersign = "="
quantitativereadout = 154

[[record]]
compound = "CC(C)N1CCN(C(=O)Cc2ccc(Cl)cc2Nc2nccc(-c3cc(C#N)c4c(c3)C(C)(CO)CN4)n2)CC1 (centres unmarked) [Compound 55]"
qualifiersign = "="
quantitativereadout = 135

[[record]]
compound = "Cc1c(CN2CC(C)OC(C)C2)cccc1Nc1nccc(-c2cc(C#N)c3c(c2)[C@@](C)(CO)CN3)n1 (some centres unmarked) [Compound 197]"
qualifiersign = "="
quantitativereadout = 223

[[record]]
compound = "Cc1ccc(CN2CC(F)(F)C2)cc1Nc1nccc(-c2cc(C#N)c3c(c2)[C@@](C)(CO)CN3)n1 [Compound 219]"
qualifiersign = "="
quantitativereadout = 181

[[record]]
compound = "Cc1cc(F)c(C(=O)NC2CCOC2)cc1Nc1nccc(-c2cc(C#N)c3c(c2)[C@@](C)(CO)CN3)n1 (single isomer, unassigned) [Compound 169]"
qualifiersign = "="
quantitativereadout = 256

[[record]]
compound = "Cc1c(CN2CC(C)OC(C)C2)cc(C#N)cc1Nc1nccc(-c2cc(C#N)c3c(c2)[C@@](C)(CO)CN3)n1 (some centres unmarked) [Compound 194]"
qualifiersign = "="
quantitativereadout = 193

[[record]]
compound = "CN1CCC(Oc2ccc(Nc3nccc(-c4cc(C#N)c5c(c4)C(C)(CO)CN5)n3)cc2C(F)(F)F)CC1 (centres unmarked) [Compound 43]"
qualifiersign = "="
quantitativereadout = 237

[[record]]
compound = "CC(=O)OC[C@@]1(C)CNc2c(C#N)cc(-c3ccnc(Nc4cc(C#N)ccc4OCC4CC4)n3)cc21 [Compound 128]"
qualifiersign = "="
quantitativereadout = 156

[[record]]
compound = "C[C@]1(CO)CNc2c(C#N)cc(-c3ccnc(Nc4cc(C#N)ccc4CNC4CC4)n3)cc21 [Compound 225]"
qualifiersign = "="
quantitativereadout = 181

[[record]]
compound = "Cc1ccc(C#N)cc1Nc1nccc(-c2cc(C#N)c3c(c2)[C@@](C)(CO)CN3)n1 [Compound 130]"
qualifiersign = "="
quantitativereadout = 264

[[record]]
compound = "CC(=O)NCCCCc1ccc(C#N)cc1Nc1nccc(-c2cc(C#N)c3c(c2)[C@@](C)(CO)CN3)n1 [Compound 185]"
qualifiersign = "="
quantitativereadout = 156

[[record]]
compound = "C[C@]1(CO)CNc2c(C#N)cc(-c3ccnc(Nc4ccccc4P(C)(C)=O)n3)cc21 [Compound 62]"
qualifiersign = "="
quantitativereadout = 228

[[record]]
compound = "CC1(CO)CNc2c(C#N)cc(-c3ccnc(Nc4ccc(OC5CCOCC5)c(C(F)(F)F)c4)n3)cc21 (centres unmarked) [Compound 37]"
qualifiersign = "="
quantitativereadout = 221

[[record]]
compound = "Cc1ccc(C(=O)NC2CCN(C)C2)cc1Nc1nccc(-c2cc(C#N)c3c(c2)[C@@](C)(CO)CN3)n1 (mixture of isomers) [Compound 163]"
qualifiersign = "="
quantitativereadout = 150

[[record]]
compound = "COc1ccc(Cl)cc1Nc1ncc(F)c(-c2cc(C#N)c3c(c2)C(C)(CO)CN3)n1 (centres unmarked) [Compound 47]"
qualifiersign = ">"
quantitativereadout = 250

[[record]]
compound = "COCCOc1cc(F)ccc1Nc1nccc(-c2cc(C#N)c3c(c2)[C@@](C)(CO)CN3)n1 [Compound 69]"
qualifiersign = "="
quantitativereadout = 157

[[record]]
compound = "Cc1cc(C#CCN)c(C#N)cc1Nc1nccc(-c2cc(C#N)c3c(c2)[C@@](C)(CO)CN3)n1 [Compound 171]"
qualifiersign = "="
quantitativereadout = 249

[[record]]
compound = "CNCCOc1ccc(Cl)cc1Nc1nccc(-c2cc(C#N)c3c(c2)C(C)(C)CN3)n1 [Compound 109]"
qualifiersign = "="
quantitativereadout = 152

[[record]]
compound = "Cc1c(Nc2nccc(-c3cc(C#N)c4c(c3)C(C)(CO)CN4)n2)cc(Cl)cc1C(=O)N1CCN(C)CC1 (centres unmarked) [Compound 58]"
qualifiersign = "="
quantitativereadout = 183

